# assay.name: Cytotoxicity against human MDA-MB-435/LCC6MDR1 cells assessed as growth inhibition after 48 hrs by SRB assay
# Format: functional, cell-based, MDA-MB-435/LCC6 MDR1
# details: Homo sapiens, MDA-MB-435/LCC6 MDR1, 48 h
recorded.metric: IC50 (nM)
Record the value in nM, omitting the unit from your answer.

// worked examples, IC50 included
[[record]]
structure_notation = "O=C(c1ccc(Br)cc1)c1nc(-c2ccc(Br)cc2)c[nH]1"
experimental_value = 17800

[[record]]
structure_notation = "COc1cc(-c2c[nH]c(C(=O)c3ccc(Br)cc3)n2)cc(OC)c1OC"
experimental_value = 161

[[record]]
structure_notation = "COc1cc(C(=O)c2nc(-c3ccc(Br)cc3)c[nH]2)cc(OC)c1OC"
experimental_value = 43


Request: Requested field: IC50. Item: CCn1cc(-c2ccccc2)nc1C(=O)c1cc(OC)c(OC)c(OC)c1
Result: 33

Request: Which measured IC50 value corresponds to CCc1[nH]c(C(=O)c2cc(OC)c(OC)c(OC)c2)nc1-c1ccccc1 ?
Result: 5110
